Literature survey of IC50 (system: Cytochrome P450 2C19 (Homo sapiens, UniProt P33261)).
value-type: IC50

O=C1CC(c2c[nH]c3ccc(F)cc23)C(=O)N1 (configuration not stated): 78 µM
CC(C)(N)C(=O)N[C@H](COCc1ccccc1)c1nnnn1[C@H](CC#N)COc1ccccc1O: 42 µM
Cc1cc(-c2c(Cl)cccc2Cl)cc2nnc(Nc3ccc(OCCN4CCCC4)cc3)nc12: 12 µM
O=C1Nc2ccccc2/C1=C\c1ccc2c(/C=C/c3ccncc3)n[nH]c2c1: 0.13 µM
Cc1cc2c(F)c(Oc3ncnn4cc(OC[C@@H](C)O)c(C)c34)ccc2[nH]1: > 40 µM
COc1nc(-c2nc(Nc3cc(F)cc(C(F)(F)F)c3)n(C)n2)ccc1-n1cnc(C)c1: 22.1 µM
O=C1NN=C(c2ccc(OC3CCN(C4CCC4)CC3)cc2)[C@@H]2C[C@H]12: > 30 µM
Cc1cc(-c2ccnn2C)c2cccc(OCc3c(C)ccnc3CNC(=O)C(C)C)c2n1: > 5 µM
COc1cc(N2CCC(N3CCN(C)CC3)CC2)ccc1-c1nc2c(N[C@H]3[C@@H](C(N)=O)[C@@H]4C=C[C@H]3C4)c(Cl)cnc2[nH]1: > 30 µM
CCc1ccccc1N(CC(=O)NCc1ccc(Cl)cc1)S(=O)(=O)c1ccc(C)cc1: 2 µM
CC(=O)N[C@@H](C)/C=C/c1ccc(Oc2ccc3nc(C)sc3c2Cl)nc1: > 20 µM
CC(C)c1nc(CN(C)C(=O)N[C@H](C(=O)N[C@@H](CC[C@@H](Cc2ccccc2)NC(=O)OCc2cncs2)Cc2ccccc2)C(C)C)cs1: > 5 µM
CC(C)c1cc(Oc2c(Cl)cc(-n3nc(C#N)c(=O)[nH]c3=O)cc2Cl)n[nH]c1=O: > 50 µM
O=C(O)COc1c(C(=O)O)sc(-c2cccc(NC3CCN(S(=O)(=O)Cc4ccccc4)CC3)c2)c1Br: > 500 µM
O=C(O)c1ccc2c(C(=O)c3ccccc3)cc(C(=O)c3ccccc3)c-2cc1: > 50 µM
CCN(C(C)=O)c1ccc(OC)c2nc(NC(=O)c3ccnn3C)sc12: > 50 µM
CNC(=O)[C@@]12C[C@@H]1[C@@H](n1cnc3c(NCCc4ccc(OC)c(OC)c4)nc(C#Cc4ccc(Cl)s4)nc31)[C@H](O)[C@@H]2O: 15.1 µM
Cc1ccc2c(OCCN3CCN(Cc4ccc5c(c4F)N(C)C(=O)CO5)CC3)cccc2n1: > 16 µM
O=S(=O)(C1CC1)N1CCC(Oc2ccc3c(c2)CCC2(CCN(C4CCC4)CC2)O3)CC1: > 30 µM
O=C(O)c1cccc(C2=C(c3cc(Cl)ccc3OCc3ccc(F)cc3F)CCC2)n1: 62 µM
CC(C)C[C@](C)(N)COc1cnc(-c2ccnc(C(F)F)c2)cc1C(F)F: > 20 µM
O=C(O)CCCOc1cccc(CCCCCCOc2cc(-c3ccc4c(c3)OCO4)cc(-c3ccccc3F)c2)c1CCC(=O)O: > 7.5 µM
Cn1nc(-c2ccc(C(=O)N3CCC[C@H]3CN3CCCC3)cc2)ccc1=O: > 30 µM
N#Cc1ccc2c(c1)[nH]c(=O)n2[C@H]1C[C@H](c2nnc(-c3ccncn3)n2-c2ccccc2Cl)C1: > 25 µM
CNC(=O)N1CCc2c(c(N3CCCc4cc(-c5cnn(C)c5)c(C(F)F)cc43)nn2C2CCOCC2)C1: > 10 µM
c1ccc(-c2nc3cccc(CN4CCCCC4)c3[nH]2)cc1: > 50 µM
Cc1cc(C(=O)O)nn1Cc1cc(Br)ccc1OCc1ccccc1: > 100 µM
Nc1oncc1-c1ccccc1: > 10 µM
O=C(c1cc(F)cc(Cl)c1)N1CCn2nc(-c3ccc(F)cn3)cc2C1: > 40 µM
FC(F)(F)c1c(N2CCC(c3ccccc3)CC2)ccn2c(CC3CC3)nnc12: 20 µM
CC(C)S(=O)(=O)NC1Cc2ccc(-c3cccnc3F)cc2C1 (configuration not stated): 9 µM
N=C(N)NC(=O)c1ccc(C2CCN(C(=O)C3CC3)CC2)c(C(F)(F)F)c1: 5 µM
COc1ccc(C(=O)NCc2cccc(C(=O)NCCc3ccncc3)c2)cc1OC: > 30 µM
N#Cc1ccc([C@@H]2[C@@H]3CC[C@@H](C[C@@H]3O)N2S(=O)(=O)c2ccc(Cl)cc2)cn1: > 10 µM
Cc1nc(-c2ccc(F)cc2F)n(C)c1CC(=O)NCc1ccc(F)cc1Cl: > 10 µM
CC(=O)N1C[C@H](C(=O)Nc2ccc(C)cc2C)[C@@H](c2nnc([C@H]3C[C@@H](CC(C)C)C3)n2C2CC2)C1: > 50 µM
C=CC(=O)Nc1cc(Oc2nc(Nc3ccc(N4CCN(C)CC4)cc3OC)ccc2N2CCCCC2)ccc1C: > 10 µM
